The values you see were collected from ChEMBL document CHEMBL1201862.

Target: Streptokinase A (Streptococcus pyogenes serotype M1, UniProt P10520)
Sequence (P10520 whole entry): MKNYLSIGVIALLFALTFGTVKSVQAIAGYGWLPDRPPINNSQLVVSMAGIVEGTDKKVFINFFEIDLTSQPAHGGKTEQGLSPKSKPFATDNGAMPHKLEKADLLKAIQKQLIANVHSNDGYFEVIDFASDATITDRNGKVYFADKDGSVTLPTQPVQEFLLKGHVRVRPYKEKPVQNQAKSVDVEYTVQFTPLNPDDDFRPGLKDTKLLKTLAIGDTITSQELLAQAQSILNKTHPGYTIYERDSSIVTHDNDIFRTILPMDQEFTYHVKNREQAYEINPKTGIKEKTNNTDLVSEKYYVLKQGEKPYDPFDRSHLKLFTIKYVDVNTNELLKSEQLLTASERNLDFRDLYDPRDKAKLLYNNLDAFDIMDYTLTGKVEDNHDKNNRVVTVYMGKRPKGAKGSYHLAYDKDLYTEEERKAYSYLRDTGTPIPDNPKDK
Assay: S. pyogenes streptokinase expression inhibitors, potency, dose response, plasminogen activation absorbance, OD405 (AID 1914);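 also: secreted streptokinase activity via plasminogen activation per viability signal from cell pellet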
Format: functional, Streptococcus pyogenes M1 GAS
Active and inactive are the calls of the source. Rule as the data show it: actives have a measured EC50 and inactives only a lower limit.
assay readout: EC50

Recorded EC50, per entry:
>>> value_reported("C/C(=N/NC(=O)c1cc2ccccc2cc1O)C1C(=O)c2ccccc2C1=O")
"> 150 µM (not active)"
>>> value_reported("CN(C)S(=O)(=O)c1ccc(-c2csc(N/N=C/c3ccc(O)cc3)n2)cc1")
"> 150 µM (not active)"
>>> value_reported("COc1ccccc1/C=N\\Nc1cc(C)nc(-n2nc(C)cc2C)n1")
"> 150 µM (not active)"

// returns reported EC50 for input "CCCOC(=O)c1ccc(Oc2c[nH]nc2-c2ccc(OCC)cc2O)cc1" > 150 µM (not active)

Same again, this time with CCCCCCN1N=C(C)C(C(=O)c2ccc(Cl)cc2)C1=O (centres undefined) > 150 µM (not active)

Would you kindly repeat that for "Cc1nn(-c2ccccc2)c(C)c1/C=N/NC(=O)c1cc(C23CC4CC(CC(C4)C2)C3)[nH]n1" ? 10.3 µM (active)

Next record, please: "Cc1ccc(Cn2cc(/C=N/NC(=O)Cc3nnc(NC(=O)c4ccc(C)cc4)s3)c3ccccc32)cc1" > 150 µM (not active)
